System: mAbGB3.1
Measurement description: Inhibition ELISA of mAbGB3.1 binding to bovine lung proteins / immobilized BSA neoglycoproteins
Design: species or system mouse
Conditions used: low mM concentrations, pH 7.5; FIG. 2 Panel C
Observed property: inhibition of mAbGB3.1 reactivity by carboxylic acids

Answered examples (4):
O=C(O)CC(O)(CC(=O)O)C(=O)O [citrate]	inhibited
CC(=O)O [acetate]	inhibited
O=C[C@H](O)[C@@H](O)[C@H](O)[C@H](O)C(=O)O	did not inhibit binding
CC(O)C(=O)O (centres unmarked)	did not inhibit binding

Returns the measured inhibition of mAbGB3.1 reactivity by carboxylic acids for the input compound. Input: O=C(O)CN(CCN(CC(=O)O)CC(=O)O)CC(=O)O
inhibited

---

Tested on: mAbGB3.1
Measurement description: Inhibition ELISA of mAbGB3.1 binding to bovine lung proteins / immobilized BSA neoglycoproteins
Set-up: species or system mouse
Conditions used: low mM concentrations, pH 7.5; FIG. 2 Panel C
Observed property: inhibition of mAbGB3.1 reactivity by carboxylic acids

CC(=O)C(=O)O [pyruvic acid]	did not inhibit binding
O=C[C@H](O)[C@@H](O)[C@@H](O)[C@H](O)C(=O)O [galacturonic acid]	did not inhibit binding
